Organ distribution of F-18 signal, spleen values, listed per item
Assay Explanation: Biodistribution: organ distribution of F-18 signal in mice
Assay type: in vivo, male NMRI mice
Assay Conditions: spleen, 2 min post i.v. injection
Experimental: Biodistribution and excretion studies were performed in male NMRI mice (body weight app. 30g; 3 animals per time point). The animals were kept under normal laboratory conditions at a temperature of 22±2° C. and a dark/light rhythm of 12 hours. Food and water were provided ad libitium. […] At 2, 5, 30, 60, 240 min post intravenous injection via the tail vein of ca. 150 kBq in 100 μl of the test compound, urine and feces were quantitatively collected. […]

- Compound: "O=C(NCC(=O)N1CCN(c2ccc(OCc3ccccc3)cc2)CC1)c1ccc([18F])nc1 [Example 10e]"
  Measured: "1.96 % ID/g"
- Compound: "O=C(NCC(=O)N1CCN(c2ccc(OCc3ccccc3)cc2)CC1)c1ccnc([18F])c1 [Example 11c]"
  Measured: "1.47 % ID/g"

Given O=C(NCC(=O)N1CCN(c2ccc(OCc3ccccc3)cc2)CC1)c1cccnc1[18F] [Example 12c] , state its recorded Organ distribution of F-18 signal, spleen.
1.32 % ID/g

Need Organ distribution of F-18 signal, spleen of O=C(NCC(=O)N1CCN(c2ccc(OCc3ccccc3)cc2)CC1)c1cccc(OCC[18F])c1 , thanks.
1.73 % ID/g

Can you share its Organ distribution of F-18 signal, spleen? I mean this compound: O=C(NCC(=O)N1CCN(c2ccc(OCc3ccccc3)cn2)CC1)c1ccnc([18F])c1 [Example 14f]
1.67 % ID/g

----------
Assay Explanation: Biodistribution: organ distribution of F-18 signal in mice
Assay type: in vivo, male NMRI mice
Assay Conditions: adrenals, 30 min post i.v. injection
Property Measured: Organ distribution of F-18 signal, adrenals (% ID/g)
Numbers only; they are read as % ID/g.

Observe how each entry below is paired with its result.
- Compound: "O=C(NCC(=O)N1CCN(c2ccc(OCc3ccccc3)cc2)CC1)c1ccnc([18F])c1 [Example 11c]"
  Measure Unit: "% ID/g"
  Measured: 2.41
- Compound: "O=C(NCC(=O)N1CCN(c2ccc(OCc3ccccc3)cc2)CC1)c1ccc([18F])nc1 [Example 10e]"
  Measure Unit: "% ID/g"
  Measured: 2.36
- Compound: "O=C(NCC(=O)N1CCN(c2ccc(OCc3ccccc3)cc2)CC1)c1cccc(OCC[18F])c1 [Example 3g]"
  Measure Unit: "% ID/g"
  Measured: 4.49
- Compound: "O=C(NCC(=O)N1CCN(c2ccc(OCc3ccccc3)cn2)CC1)c1ccnc([18F])c1 [Example 14f]"
  Measure Unit: "% ID/g"
  Measured: 1.57

// Organ distribution of F-18 signal, adrenals lookup, key: O=C(NCC(=O)N1CCN(c2ccc(OCc3ccccc3)cc2)CC1)c1cccnc1[18F] [Example 12c]
2.77

----------
Assay Explanation: Biodistribution: organ distribution of F-18 signal in mice
Assay type: in vivo, male NMRI mice
Assay Conditions: heart, 240 min post i.v. injection
One threshold, 0.08 % ID/g, splits the recorded Organ distribution of F-18 signal, heart values: lower ones are true (1), equal or higher ones are false (0).

Sample answers from the record:
- Compound: "O=C(NCC(=O)N1CCN(c2ccc(OCc3ccccc3)cn2)CC1)c1ccnc([18F])c1 [Example 14f]"
  Category Label: "true (1)"
- Compound: "O=C(NCC(=O)N1CCN(c2ccc(OCc3ccccc3)cc2)CC1)c1ccc([18F])nc1 [Example 10e]"
  Category Label: "false (0)"
- Compound: "O=C(NCC(=O)N1CCN(c2ccc(OCc3ccccc3)cc2)CC1)c1ccnc([18F])c1 [Example 11c]"
  Category Label: "false (0)"

Next up:
Below 0.08 % ID/g on Organ distribution of F-18 signal, heart? Entry O=C(NCC(=O)N1CCN(c2ccc(OCc3ccccc3)cc2)CC1)c1cccc(OCC[18F])c1 [Example 3g]
false (0)

Values from patent US20110250135A1
